# System: IL-1β release upon NLRP3 activation in peripheral blood mononuclear cells (PBMC)
# test protocol: PBMC IC50 determination assay: inhibition of IL-1β release upon NLRP3 activation
# Format: cell-based
# experimental context: PBMC, PBMC primed with LPS 3 h, compound 30 min, stimulated with ATP (5 mM) or nigericin (10 μM) 1 h; IL-1β by ELISA (Protocol A) or HTRF (Protocol B)
pIC50: −log10 of the molar value.
Kindly state pIC50 for each of the entries shown.

Entry Cc1nn(CC(=O)Nc2ncc(F)cn2)c(=O)c2ccc(C3CC3)nc12 — recorded pIC50 = 6.00 to 7.00

Sample CC(C)c1nn(CC(=O)N[C@@H]2CCCN(C3CC3)C2)c(=O)c2cnn(C)c12 ; pIC50 observed: 5.52 to 6.00

Just so you know, measured pIC50 for CNc1cc2c(C(C)C)nn(C3(C(=O)Nc4ncccn4)CC3)c(=O)c2s1 came out at 4.30 to 5.00

pIC50 reported for this compound Cc1nn(CC(=O)Nc2ncco2)c(=O)c2cc(C3CC3)oc12 : 5.52 to 6.00

Form field pIC50, entry CCc1nn(CC(=O)Nc2ncccn2)c(=O)c2ccc(C3CC3)nc12 : 6.00 to 7.00

---

# System: IL-1β release upon NLRP3 activation in peripheral blood mononuclear cells (PBMC)
# test protocol: PBMC IC50 determination assay: inhibition of IL-1β release upon NLRP3 activation
# Assay type: cell-based
# experimental context: PBMC, PBMC primed with LPS 3 h, compound 30 min, stimulated with ATP (5 mM) or nigericin (10 μM) 1 h; IL-1β by ELISA (Protocol A) or HTRF (Protocol B)
pIC50: −log10 of the molar value. Structures can show the parent of a compound that is named as a salt.
Record form. Attribute: pIC50. Fill in for each entry.

The reported pIC50 value, IL-1β release upon NLRP3 activation in peripheral blood mononuclear cells (PBMC), for CCNc1cc2c(C(C)C)nn(C3(C(=O)Nc4ncccn4)CC3)c(=O)c2s1 reads 5.00 to 5.52

Item CC(C)c1nn(CC(=O)Nc2ncccn2)c(=O)c2cn(C3CCC3)nc12 was tested on IL-1β release upon NLRP3 activation in peripheral blood mononuclear cells (PBMC); the reported pIC50 is 5.52 to 6.00

# pIC50 measured on IL-1β release upon NLRP3 activation in peripheral blood mononuclear cells (PBMC) for item CCCc1cc2c(C(C)C)nn(CC(=O)Nc3ncccn3)c(=O)c2s1 = 6.00 to 7.00

CCc1nn(CC(=O)Nc2ncccn2)c(=O)c2cc(C3CC3)oc12 on IL-1β release upon NLRP3 activation in peripheral blood mononuclear cells (PBMC) gives pIC50 = 6.00 to 7.00

IL-1β release upon NLRP3 activation in peripheral blood mononuclear cells (PBMC) data for Cc1nn(CC(=O)N[C@H]2C[C@@](C)(O)C2)c(=O)c2cc(C3CC3)oc12 ; its pIC50: 5.52 to 6.00

Form field pIC50 for item CC(C)c1nn(CC(=O)Nc2ncccn2)c(=O)c2cn(C3CC3)nc12 on IL-1β release upon NLRP3 activation in peripheral blood mononuclear cells (PBMC): 6.00 to 7.00

Record CCc1cc2c(=O)n(CC(=O)Nc3ncc(F)cn3)nc(CC)c2o1 has IL-1β release upon NLRP3 activation in peripheral blood mononuclear cells (PBMC) pIC50 equal to 6.00 to 7.00

Summary line: COCc1cc2c(C(C)C)nn(CC(=O)N[C@@H]3CCCN(C4CCC4)C3)c(=O)c2s1 [Compound 31, hydrochloride] , IL-1β release upon NLRP3 activation in peripheral blood mononuclear cells (PBMC), reported pIC50 = 5.52 to 6.00
